// provenance: ChEMBL document CHEMBL3393009

Assay: Tmax in non-human primate at 5 mg/kg, po
Format: ADME, organism-based
Set-up: dose 5 mg/kg, route oral
Settings: monkey, in vivo

>  <Smiles Entry>
N#Cc1cccc(-c2c[nH]c3ncnc(N4CCOCC4)c23)c1

>  <Tmax, h>
2

$$$$

====

Assay: Clearance in human liver microsomes
Format: ADME
Settings: read-out: CLH
Listed here are molecules together with their documented CLint scaled.
Measured Metric: CLint scaled (mL/min/kg)

>  <Molecule>
N#Cc1cccc(-c2c[nH]c3ncnc(N4CCOCC4)c23)n1

>  <Measured Metric>
CLint scaled

>  <Limit Operator>
=

>  <Value Measured>
10

$$$$
>  <Molecule>
N#Cc1cccc(-c2c[nH]c3ncnc(N4CCOC(c5ccno5)C4)c23)c1 (stereo not given)

>  <Measured Metric>
CLint scaled

>  <Limit Operator>
=

>  <Value Measured>
48

$$$$
>  <Molecule>
C[C@H]1CCCN(c2ncnc3[nH]cc(-c4cccc(C#N)c4)c23)C1

>  <Measured Metric>
CLint scaled

>  <Limit Operator>
=

>  <Value Measured>
220

$$$$
>  <Molecule>
Cc1cncc(-c2c[nH]c3ncnc(N4CCOCC4)c23)c1

>  <Measured Metric>
CLint scaled

>  <Limit Operator>
=

>  <Value Measured>
69

$$$$
>  <Molecule>
Cc1nc([C@H]2CN(c3ncnc4[nH]cc(-c5cccc(C#N)c5)c34)CCO2)no1

>  <Measured Metric>
CLint scaled

>  <Limit Operator>
=

>  <Value Measured>
63

$$$$
>  <Molecule>
N#Cc1cc(-c2c[nH]c3ncnc(N4CCOCC4)c23)ccn1

>  <Measured Metric>
CLint scaled

>  <Limit Operator>
<

>  <Value Measured>
8

$$$$
>  <Molecule>
C[C@@H]1CCCN(c2ncnc3[nH]cc(-c4cccc(C#N)c4)c23)C1

>  <Measured Metric>
CLint scaled

>  <Limit Operator>
=

>  <Value Measured>
204

$$$$
>  <Molecule>
Cc1noc(C2CN(c3ncnc4[nH]cc(-c5cccc(C#N)c5)c34)CCO2)n1 (stereo not given)

>  <Measured Metric>
CLint scaled

>  <Limit Operator>
=

>  <Value Measured>
58

$$$$
>  <Molecule>
COCC1CCCN(c2ncnc3[nH]cc(-c4cccc(C#N)c4)c23)C1 (stereo not given)

>  <Measured Metric>
CLint scaled

>  <Limit Operator>
>

>  <Value Measured>
300

$$$$
>  <Molecule>
C[C@H]1CN(c2ncnc3[nH]cc(-c4cccc(C#N)c4)c23)CCO1

>  <Measured Metric>
CLint scaled

>  <Limit Operator>
=

>  <Value Measured>
53

$$$$
